TGI by entry:
Tested on: CAKI-1 renal
assay.text: NCI tumour cell line growth inhibition, 48 h

| compound | assayed.target | TGI |
| --- | --- | --- |
| O=C(N/N=C/c1ccc(N(CCCl)CCCl)cc1)c1ccc(C(=O)N/N=C/c2ccc(N(CCCl)CCCl)cc2)cc1 | CAKI-1 renal | > 100 µM |
| Cc1ccc(C)c2c1n1c(=O)n(C)c(=O)n21 | CAKI-1 renal | > 100 µM |
| Nc1c(C(=O)O)nnc2cc(Cl)ccc12 | CAKI-1 renal | > 100 µM |
| CCCCCCCCCCCCCCCCCCNc1nc(=O)n(C2CC(OP(=O)(O)OCC3OC(n4cc(F)c(=O)[nH]c4=O)CC3O)C(CO)O2)cc1F (stereo not given) | CAKI-1 renal | > 100 µM |
| COC(=O)/C=C\C(C#N)(C#N)N=Cc1ccc(Br)cc1 | CAKI-1 renal | 5.47 µM |
| CCN(CCC#N)C(=O)Nc1ccccc1 | CAKI-1 renal | > 100 µM |
| CCOC(=O)C1CCCN1C(=O)c1ccccc1Cl (stereo not given) | CAKI-1 renal | > 100 µM |
| COc1ccc2c(c1)C=CC1C2CC[C@]2(C)C(NC(=O)/C=C/c3ccc(O)c(O)c3)CCC12 (stereo not given in full) | CAKI-1 renal | 24.7 µM |
| C/C(=N\Nc1n[nH]c(=S)n1N)c1c(O)cc(C)oc1=O | CAKI-1 renal | > 100 µM |
| O=C1/C(=C/c2ccc(O)cc2)Oc2ccccc21 | CAKI-1 renal | > 100 µM |
| CC1/C(=N/O)CC(c2ccccc2)N(N=O)C1c1ccccc1 (stereo not given) | CAKI-1 renal | > 100 µM |
| COc1ccc(C2NC(N)=C(C#N)C3=C2C(C)CCC3)cc1OC (stereo not given) | CAKI-1 renal | > 100 µM |
| Cc1ccc2c(=O)cc(-c3cccc(F)c3)[nH]c2n1 | CAKI-1 renal | > 100 µM |
| CC1=C2C3OC(=O)C(C)C3C(O)C[C@@]2(C)C(=O)CC1 (stereo not given in full) | CAKI-1 renal | > 100 µM |
| Nc1ccc(C(=O)O)cc1 | CAKI-1 renal | > 100 µM |

These entries and their values trace back to PubChem BioAssay (NCI).
